Tested on: Saccharomyces cerevisiae
assay_name: protein stability index of tFT-peptide fusion (C-terminal peptide) (PSI (0-1 scale)); higher = more stable (slower turnover)
conditions_used: genetic background: cdc53-1; temperature: 37 C
I'd be grateful if you could share measured protein stability index for these entries.
Format: numeric value only, no unit, no commentary.

Exam item: // returns reported protein stability index for input IGLSIWSVVSAL
Marked response: 0.689

Exam item: // returns reported protein stability index for input RLLCLARMRGLH
Marked response: 0.714

Exam item: // returns reported protein stability index for input PPWRPVALLLLA
Marked response: 0.259

Exam item: // returns reported protein stability index for input VWLFCLSRLYLL
Marked response: 0.383

Exam item: // returns reported protein stability index for input WFLLILFSAFAV
Marked response: 0.463

Exam item: // returns reported protein stability index for input FLLLDFMLVSLV
Marked response: 0.518

---

System: Saccharomyces cerevisiae
assay_name: protein stability index of tFT-peptide fusion (C-terminal peptide) (PSI (0-1 scale)); higher = more stable (slower turnover)
conditions_used: genetic background: cdc34-1; temperature: 37 C
I'd be grateful if you could share measured protein stability index for these entries.
Format: numeric value only, no unit, no commentary.

Exam item: Hi! What's the reported protein stability index for LAPSRNRSVWLV on Saccharomyces cerevisiae?
Marked response: 0.591

Exam item: Hi! What's the reported protein stability index for VFFIFFFAFLFF on Saccharomyces cerevisiae?
Marked response: 0.294

Exam item: Hi! What's the reported protein stability index for VLFFLVTSSVYF on Saccharomyces cerevisiae?
Marked response: 0.124

Exam item: Hi! What's the reported protein stability index for VHNIDLFVVCYI on Saccharomyces cerevisiae?
Marked response: 0.433

Exam item: Hi! What's the reported protein stability index for WAIVVLVCFLRL on Saccharomyces cerevisiae?
Marked response: 0.283

Exam item: Hi! What's the reported protein stability index for VYLVLRCGSVLV on Saccharomyces cerevisiae?
Marked response: 0.565

Exam item: Hi! What's the reported protein stability index for CWDNTLKTMRQM on Saccharomyces cerevisiae?
Marked response: 0.67

Exam item: Hi! What's the reported protein stability index for VCLLFRFCCWFW on Saccharomyces cerevisiae?
Marked response: 0.351

Exam item: Hi! What's the reported protein stability index for GRCGGPRSLGVG on Saccharomyces cerevisiae?
Marked response: 0.562

Exam item: Hi! What's the reported protein stability index for TVYMVIRVIVWG on Saccharomyces cerevisiae?
Marked response: 0.129

---

Test system: Saccharomyces cerevisiae
assay_name: protein stability index of tFT-peptide fusion (C-terminal peptide) (PSI (0-1 scale)); higher = more stable (slower turnover)
conditions_used: genetic background: wild type; temperature: 30 C
recorded_endpoint: protein stability index
Format: numeric value only, no unit, no commentary.

Exam item: // returns reported protein stability index for input KIVIPDKFIQHI [HRD1 C-terminal 12 aa]
Marked response: 0.706

Exam item: // returns reported protein stability index for input DLDLDLFDPDDF [MED4 C-terminal 12 aa]
Marked response: 0.684

Exam item: // returns reported protein stability index for input LYKRWVPGRNRD [SEN2 C-terminal 12 aa]
Marked response: 0.696

Exam item: // returns reported protein stability index for input DSDNAAPLHDEL [KRE5 C-terminal 12 aa]
Marked response: 0.685

Exam item: // returns reported protein stability index for input CLFRYKQLPRRV [MCH2 C-terminal 12 aa]
Marked response: 0.687

Exam item: // returns reported protein stability index for input QGYKPNQSDRYY [PIN2 C-terminal 12 aa]
Marked response: 0.711

Exam item: // returns reported protein stability index for input IKKGTPNNIAFL [YJL197C-A C-terminal 12 aa]
Marked response: 0.704

Exam item: // returns reported protein stability index for input ELAYKSFYALLD [VPS28 C-terminal 12 aa]
Marked response: 0.702

Exam item: // returns reported protein stability index for input KLGEAEVQGLIM [YDR340W C-terminal 12 aa]
Marked response: 0.688

Exam item: // returns reported protein stability index for input YPAREGEVLRPN [AKR2 C-terminal 12 aa]
Marked response: 0.697

Exam item: // returns reported protein stability index for input GEDEENTVDSQY [YOL131W C-terminal 12 aa]
Marked response: 0.68

Exam item: // returns reported protein stability index for input KKEKISKYVSKS [OPI11 C-terminal 12 aa]
Marked response: 0.683

Exam item: // returns reported protein stability index for input NAIKNWTGVNVK [MIC26 C-terminal 12 aa]
Marked response: 0.695

---

Test system: Saccharomyces cerevisiae
assay_name: protein stability index of tFT-peptide fusion (C-terminal peptide) (PSI (0-1 scale)); higher = more stable (slower turnover)
conditions_used: genetic background: das1 deletion; temperature: 30 C
recorded_endpoint: protein stability index
Format: numeric value only, no unit, no commentary.

Exam item: // returns reported protein stability index for input DDDEDGYNPYTL [PAP2 C-terminal 12 aa]
Marked response: 0.722

Exam item: // returns reported protein stability index for input SLPRQAGGRKKK [GLC7 C-terminal 12 aa]
Marked response: 0.715

Exam item: // returns reported protein stability index for input RAMNEDETLRNL [ORC1 C-terminal 12 aa]
Marked response: 0.696

Exam item: // returns reported protein stability index for input QIFSLPAVTYNK [REC102 C-terminal 12 aa]
Marked response: 0.693

Exam item: // returns reported protein stability index for input NRKIARMRHSKR [NUP1 C-terminal 12 aa]
Marked response: 0.706

Exam item: // returns reported protein stability index for input MTGILKDYSHRV [TFA2 C-terminal 12 aa]
Marked response: 0.715

Exam item: // returns reported protein stability index for input SLNRPAERGGNR [YNL143C C-terminal 12 aa]
Marked response: 0.696

---

Test system: Saccharomyces cerevisiae
assay_name: protein stability index of tFT-peptide fusion (C-terminal peptide) (PSI (0-1 scale)); higher = more stable (slower turnover)
conditions_used: genetic background: wild type; temperature: 30 C
Quick rule: protein stability index of at least 0.3 means Fulfilled, below that means Not fulfilled.

Exam item: Could you please find out whether GLGVIFFLLGYG has protein stability index that meets 0.3 or exceeds it?
Marked response: Fulfilled

Exam item: Could you please find out whether FSRFPFVKLSLV has protein stability index that meets 0.3 or exceeds it?
Marked response: Not fulfilled

Exam item: Could you please find out whether CSFELSVCLMLR has protein stability index that meets 0.3 or exceeds it?
Marked response: Not fulfilled

Exam item: Could you please find out whether HSPRVLLPLYFR has protein stability index that meets 0.3 or exceeds it?
Marked response: Not fulfilled

Exam item: Could you please find out whether DFVYFPPIPVSS has protein stability index that meets 0.3 or exceeds it?
Marked response: Not fulfilled

Exam item: Could you please find out whether RGWNGFWVVVVW has protein stability index that meets 0.3 or exceeds it?
Marked response: Not fulfilled

Exam item: Could you please find out whether FFCFFWLFHWFG has protein stability index that meets 0.3 or exceeds it?
Marked response: Fulfilled

Exam item: Could you please find out whether WVFVETVFLVCG has protein stability index that meets 0.3 or exceeds it?
Marked response: Not fulfilled

Exam item: Could you please find out whether FCRLCYLLLFCC has protein stability index that meets 0.3 or exceeds it?
Marked response: Not fulfilled

Exam item: Could you please find out whether WLSISNLVIACR has protein stability index that meets 0.3 or exceeds it?
Marked response: Not fulfilled

Exam item: Could you please find out whether VYLVLRCGSVLV has protein stability index that meets 0.3 or exceeds it?
Marked response: Fulfilled

Exam item: Could you please find out whether LGIPKLLCFVCT has protein stability index that meets 0.3 or exceeds it?
Marked response: Not fulfilled

Exam item: Could you please find out whether IILGVRQIEVNS has protein stability index that meets 0.3 or exceeds it?
Marked response: Fulfilled

Exam item: Could you please find out whether CYTGYMYKLLVG has protein stability index that meets 0.3 or exceeds it?
Marked response: Not fulfilled

Exam item: Could you please find out whether VFGSRCLLTVVV has protein stability index that meets 0.3 or exceeds it?
Marked response: Fulfilled

Exam item: Could you please find out whether FLLLVVYVSLYS has protein stability index that meets 0.3 or exceeds it?
Marked response: Not fulfilled

Exam item: Could you please find out whether GTWCLAMARFCA has protein stability index that meets 0.3 or exceeds it?
Marked response: Fulfilled

Exam item: Could you please find out whether VVLWWWVVARDL has protein stability index that meets 0.3 or exceeds it?
Marked response: Fulfilled

Exam item: Could you please find out whether LFHPPSFSLRLF has protein stability index that meets 0.3 or exceeds it?
Marked response: Fulfilled

Exam item: Could you please find out whether AITLPMCPLLLR has protein stability index that meets 0.3 or exceeds it?
Marked response: Not fulfilled

Exam item: Could you please find out whether RILSLQFILCKR has protein stability index that meets 0.3 or exceeds it?
Marked response: Fulfilled

Exam item: Could you please find out whether LCTCFLVLLLWC has protein stability index that meets 0.3 or exceeds it?
Marked response: Fulfilled

Exam item: Could you please find out whether LGNVTDVMHRLS has protein stability index that meets 0.3 or exceeds it?
Marked response: Fulfilled

Exam item: Could you please find out whether GKVGGRMWVWRV has protein stability index that meets 0.3 or exceeds it?
Marked response: Not fulfilled

Exam item: Could you please find out whether GLLVFRCINLRC has protein stability index that meets 0.3 or exceeds it?
Marked response: Fulfilled

Exam item: Could you please find out whether LFFFFLPHLILL has protein stability index that meets 0.3 or exceeds it?
Marked response: Not fulfilled

Exam item: Could you please find out whether YNTVALRITLIT has protein stability index that meets 0.3 or exceeds it?
Marked response: Not fulfilled

Exam item: Could you please find out whether WCGSWGVWMRLG has protein stability index that meets 0.3 or exceeds it?
Marked response: Not fulfilled

Exam item: Could you please find out whether VSVFWVFLLVAG has protein stability index that meets 0.3 or exceeds it?
Marked response: Not fulfilled

Exam item: Could you please find out whether RLVIFITRYLIS has protein stability index that meets 0.3 or exceeds it?
Marked response: Not fulfilled

Exam item: Could you please find out whether TLDWKFGRGGIG has protein stability index that meets 0.3 or exceeds it?
Marked response: Fulfilled

Exam item: Could you please find out whether LVGVLLAVWSVV has protein stability index that meets 0.3 or exceeds it?
Marked response: Not fulfilled

Exam item: Could you please find out whether GSLLWSGWSTCY has protein stability index that meets 0.3 or exceeds it?
Marked response: Fulfilled

Exam item: Could you please find out whether RPPHPPPATFLS has protein stability index that meets 0.3 or exceeds it?
Marked response: Not fulfilled

Exam item: Could you please find out whether FFCSLIISRFLL has protein stability index that meets 0.3 or exceeds it?
Marked response: Not fulfilled

Exam item: Could you please find out whether ASPLRLFIPFLF has protein stability index that meets 0.3 or exceeds it?
Marked response: Not fulfilled

Exam item: Could you please find out whether SYVLLQSYVSLV has protein stability index that meets 0.3 or exceeds it?
Marked response: Fulfilled

Exam item: Could you please find out whether RSRRNRYSRKIA has protein stability index that meets 0.3 or exceeds it?
Marked response: Not fulfilled

Exam item: Could you please find out whether RFFFFFPCLLAP has protein stability index that meets 0.3 or exceeds it?
Marked response: Fulfilled

Exam item: Could you please find out whether VGVYVWRGVLWA has protein stability index that meets 0.3 or exceeds it?
Marked response: Not fulfilled

Exam item: Could you please find out whether APPFPPPPARSL has protein stability index that meets 0.3 or exceeds it?
Marked response: Fulfilled

Exam item: Could you please find out whether YSCFFFLFSFFF has protein stability index that meets 0.3 or exceeds it?
Marked response: Fulfilled

Exam item: Could you please find out whether PSTLVITVVITK has protein stability index that meets 0.3 or exceeds it?
Marked response: Not fulfilled

Exam item: Could you please find out whether WFLLILFSAFAV has protein stability index that meets 0.3 or exceeds it?
Marked response: Fulfilled

Exam item: Could you please find out whether PLSDPLRVILIM has protein stability index that meets 0.3 or exceeds it?
Marked response: Not fulfilled

Exam item: Could you please find out whether FLSPPPFLALLP has protein stability index that meets 0.3 or exceeds it?
Marked response: Fulfilled

Exam item: Could you please find out whether FYTYILTVAEAL has protein stability index that meets 0.3 or exceeds it?
Marked response: Fulfilled

Exam item: Could you please find out whether VVVRARVFFHIF has protein stability index that meets 0.3 or exceeds it?
Marked response: Not fulfilled

Exam item: Could you please find out whether LEPFTGYTVIVM has protein stability index that meets 0.3 or exceeds it?
Marked response: Not fulfilled

Exam item: Could you please find out whether GGVVGGVGVYDG has protein stability index that meets 0.3 or exceeds it?
Marked response: Fulfilled

Exam item: Could you please find out whether GRAVGLANFTIK has protein stability index that meets 0.3 or exceeds it?
Marked response: Fulfilled

Exam item: Could you please find out whether WFSVIMLCYILP has protein stability index that meets 0.3 or exceeds it?
Marked response: Not fulfilled

Exam item: Could you please find out whether SVFCSLFLFLFY has protein stability index that meets 0.3 or exceeds it?
Marked response: Fulfilled

Exam item: Could you please find out whether MIQPRLANIIIS has protein stability index that meets 0.3 or exceeds it?
Marked response: Fulfilled

Exam item: Could you please find out whether VPVWHTVKLYCF has protein stability index that meets 0.3 or exceeds it?
Marked response: Not fulfilled

Exam item: Could you please find out whether MLVLFCLCYILG has protein stability index that meets 0.3 or exceeds it?
Marked response: Not fulfilled

Exam item: Could you please find out whether FLLLDFMLVSLV has protein stability index that meets 0.3 or exceeds it?
Marked response: Fulfilled

Exam item: Could you please find out whether GMMLLRFIIRWY has protein stability index that meets 0.3 or exceeds it?
Marked response: Not fulfilled

Exam item: Could you please find out whether RFCLLFVVAGGV has protein stability index that meets 0.3 or exceeds it?
Marked response: Fulfilled

Exam item: Could you please find out whether WWVVVRGGWCLC has protein stability index that meets 0.3 or exceeds it?
Marked response: Not fulfilled

Exam item: Could you please find out whether TIRKCIIKWIKI has protein stability index that meets 0.3 or exceeds it?
Marked response: Not fulfilled

Exam item: Could you please find out whether RFYLFLFFVRST has protein stability index that meets 0.3 or exceeds it?
Marked response: Not fulfilled

Exam item: Could you please find out whether KALFPGLLLCAF has protein stability index that meets 0.3 or exceeds it?
Marked response: Not fulfilled

Exam item: Could you please find out whether VGVLWALIVGVR has protein stability index that meets 0.3 or exceeds it?
Marked response: Not fulfilled

Exam item: Could you please find out whether PRFCVYARFHNT has protein stability index that meets 0.3 or exceeds it?
Marked response: Fulfilled

Exam item: Could you please find out whether ALWRAWLRLRIW has protein stability index that meets 0.3 or exceeds it?
Marked response: Not fulfilled

Exam item: Could you please find out whether SRGKMTIVSNQI has protein stability index that meets 0.3 or exceeds it?
Marked response: Fulfilled

Exam item: Could you please find out whether CVGRPIALAVRT has protein stability index that meets 0.3 or exceeds it?
Marked response: Fulfilled

Exam item: Could you please find out whether VFWVVFRALVGD has protein stability index that meets 0.3 or exceeds it?
Marked response: Not fulfilled

Exam item: Could you please find out whether CACAVPFLLLFF has protein stability index that meets 0.3 or exceeds it?
Marked response: Fulfilled

Exam item: Could you please find out whether LGVVLFCFRFCR has protein stability index that meets 0.3 or exceeds it?
Marked response: Fulfilled

Exam item: Could you please find out whether FFLRFGLFLFTL has protein stability index that meets 0.3 or exceeds it?
Marked response: Fulfilled
